Below: a set of entries, each annotated with reported growth.
- Test system: NCI-H226 lung
- assay_procedure: NCI-60 one-dose screen, 48 h (100 = growth as untreated, 0 = no growth, -100 = all killed)
- protocol_conditions: 10 µM unless noted
About 83,000 compounds went through this panel and 20% of them were active in at least one assay; those are over-represented in the sample as a whole.
Return type: number; implicit unit %.

Below: 4 compounds and their reported growth.
COC(CCP(=O)(c1ccccc1)c1ccccc1)(C(=O)c1ccccc1)c1ccccc1 (centres undefined) :: 85.7
O=[N+]([O-])c1ccc(Oc2cccc3c(Oc4ccc([N+](=O)[O-])cc4[N+](=O)[O-])cccc23)c([N+](=O)[O-])c1 :: 83.9
COc1ccc(/C=C\c2cc(OC)c(OC)c(OC)c2)cc1OCC(=O)Nc1nc2ccccc2s1 :: 41.7
CCN=c1sc2c(n1NC(=O)c1cc3ccc1CCc1ccc(cc1)CC3)C(=O)c1ccccc1C2=O :: 73

Now look at this one.
Q) Please report the recorded growth for `COC(=O)[C@H]1Cc2c([nH]c3ccccc23)[C@H](c2ccc3c(c2)OCO3)N1` .
A) 98.5

---

Below: a set of entries, each annotated with reported growth.
- Tested on: SF-539 CNS
- assay_procedure: NCI-60 one-dose screen, 48 h (100 = growth as untreated, 0 = no growth, -100 = all killed)
- protocol_conditions: 10 µM unless noted
Compounds without any hit were thinned out: in the full panel of roughly 83,000, 20% have a hit.
Return type: number; implicit unit %.

Below: 3 compounds and their reported growth.
COc1cc2cc(Oc3ccc(NC(=O)Nc4ccc(Cl)c(Cl)c4)cc3)c(C)nc2cc1OCCN1CCCCC1 :: 86.8
COC(=O)CNC(=O)c1ccc(NC(=O)c2[nH]c(C)c(Cl)c2Cl)c(O[C@H]2CCNC2)c1 :: 98
O=c1n(C2OC(CO)C(O)C2O)ccc2nccn12 (stereo not given) :: 112

Q) Please report the recorded growth for `CCN1CCN(CCOc2ccc(CNc3ccc4nc(CCC5CCCCC5)[nH]c4c3)cc2)CC1` .
A) -87.1

Q) Please report the recorded growth for `CCOC(=O)c1c(N)sc2cc(O)ccc12` .
A) 106

Q) Please report the recorded growth for `COc1cc2nc3cc([N+](=O)[O-])ccc3c(NCCCNCCO)c2cc1OC` .
A) -36.2

Q) Please report the recorded growth for `COc1cccc2cc(N(C)c3ncnc4ccccc34)ccc12` .
A) -28.5

Q) Please report the recorded growth for `N#C/C(=N\Nc1ccccc1)C(=O)Nc1cc(-c2ccccc2)nn1-c1ccccc1` .
A) 40.4

Q) Please report the recorded growth for `C[C@H]1c2ccccc2CN1CCCOc1cc2c(cc1OCC1CC1)C1(CCCC1)C(N)=N2` .
A) 48.1

Q) Please report the recorded growth for `COc1ccc(-c2cn(Cc3ccc4c(Br)cc(Br)c(O)c4n3)nn2)cc1` .
A) 101

---

- Tested on: MDA-MB-231 breast
- assay_procedure: NCI-60 one-dose screen, 48 h
- protocol_conditions: 10 µM unless noted
Compounds without any hit were thinned out: in the full panel of roughly 83,000, 20% have a hit. Activity calls are given as the source filed them. The calls were made as follows: active = growth percent below 10; inactive = the rest.
The reply should name one outcome from Y = active, N = inactive

CCCCC/C=C/CCC(=O)N[C@H]1[C@H](Oc2c3cc4cc2Oc2ccc(cc2Cl)[C@@H](O[C@@H]2O[C@H](CO)[C@@H](O)[C@H](O)[C@H]2NC(C)=O)[C@@H]2NC(=O)[C@H](NC(=O)[C@@H]4NC(=O)[C@H]4NC(=O)[C@@H](Cc5ccc(c(Cl)c5)O3)NC(=O)[C@@H](N)c3ccc(O)c(c3)Oc3cc(O)cc4c3)c3ccc(O)c(c3)-c3c(O[C@H]4O[C@H](CO)[C@@H](O)[C@H](O)[C@@H]4O)cc(O)cc3[C@H](C(=O)O)NC2=O)O[C@H](CO)[C@H](O)[C@@H]1O :: N
COc1cccc(CNc2nnc(C)c(C)n2)c1O :: N
Cc1nn(-c2ccccc2)c(Oc2ccccc2)c1/C=N/NC(=O)Cn1c(=O)sc2ccccc21 :: N
COc1cccc(-c2cc(-c3ccc(Nc4nc(Nc5ccc(Cl)cc5)nc(Nc5ccc(Cl)cc5)n4)cc3)nc(N)c2C#N)c1 :: Y

Q) Given O=C(Nc1ccc2c(c1)-c1ccccc1C2)C1CC(=O)N(c2ccc3c(c2)OCO3)C1 (stereo not given) , state the outcome it received in this test.
A) N

Q) Given `C=CN(C(=O)N1CCN(c2cc3c(cc2F)c(=O)c(C(=O)O)cn3C2CC2)CC1)c1nc(-c2ccc(C)cc2)cs1` , state the outcome it received in this test.
A) N

Q) Given `Cc1ccc(S(=O)(=O)N(CCC(=O)O)c2ccccc2)cc1` , state the outcome it received in this test.
A) N

Q) Given `O=C1c2ccccc2C(=O)c2cc(Cn3c[n+](Cc4ccc5ccccc5c4)c4ccccc43)ccc21` , state the outcome it received in this test.
A) N

Q) Given CCOC(=O)C1=C(C)N(C)C(=O)N(C)C1c1ccccc1 (stereo not given) , state the outcome it received in this test.
A) N

Q) Given O=C1OCC2=C1C(c1cccc(F)c1)c1cc3c(cc1N2CCO)CCC3 (stereo not given) , state the outcome it received in this test.
A) N

Q) Given `c1ccc2[nH]c(-c3ccc(-c4nccc5c4[nH]c4ccccc45)cc3)nc2c1` , state the outcome it received in this test.
A) N

Q) Given C#CCOc1ccc(C2=NN(CCCC)C3N=C(Cl)c4ncn(CCCC)c4N23)cc1OCC#C (stereo not given) , state the outcome it received in this test.
A) N

Q) Given `CCOC(=O)CSc1nc2sc3c(c2c(=O)n1-c1ccccc1)CCCCC3` , state the outcome it received in this test.
A) N
